Assay: Secondary structural content by CD spectroscopy
Type: physicochemical
Conditions: 25 °C, protein 5 μM, 50 mM Tris–HCl pH 7.5, 150 mM NaCl, 0.1% β‐mercaptoethanol, CDSSTR
readout-kind: Sheet content
The reply must contain the numeric value and, after it, the unit.

Requested field: Sheet content. Item: N245–376: truncated C‐terminal domain of the HCoV‐229E N protein, extended C‐terminal tail that includes residue 376 (protein, left off: His6, C-terminal, state not stated) QKPRWKRQPNDDVTSNVTQCFGPRDLDHNFGSAGVVANGVKAKGYPQFAELVPSTAAMLFDSHIVSKESGNTVVLTFTTRVTVPKDHPHLGKFLEELNAFTREMQQHPLLNPSALEFNPSQTSPATAEPVRD 22%

Same read-out for N245–382: truncated C‐terminal domain of the HCoV‐229E N protein, extended C‐terminal tail that includes residue 382 (protein, left off: His6, C-terminal, state not stated) QKPRWKRQPNDDVTSNVTQCFGPRDLDHNFGSAGVVANGVKAKGYPQFAELVPSTAAMLFDSHIVSKESGNTVVLTFTTRVTVPKDHPHLGKFLEELNAFTREMQQHPLLNPSALEFNPSQTSPATAEPVRDEVSIET ? 25%

Same read-out for N245–389: truncated C‐terminal domain of the HCoV‐229E N protein, extended C‐terminal tail that includes residue 389 (protein, left off: His6, C-terminal, state not stated) QKPRWKRQPNDDVTSNVTQCFGPRDLDHNFGSAGVVANGVKAKGYPQFAELVPSTAAMLFDSHIVSKESGNTVVLTFTTRVTVPKDHPHLGKFLEELNAFTREMQQHPLLNPSALEFNPSQTSPATAEPVRDEVSIETDIIDEVN ? 26%

Same read-out for N245–370: truncated C‐terminal domain of the HCoV‐229E N protein, extended C‐terminal tail that includes residue 370 (protein, left off: His6, C-terminal, state not stated) QKPRWKRQPNDDVTSNVTQCFGPRDLDHNFGSAGVVANGVKAKGYPQFAELVPSTAAMLFDSHIVSKESGNTVVLTFTTRVTVPKDHPHLGKFLEELNAFTREMQQHPLLNPSALEFNPSQTSPAT ? 23%
